# Tested on: EPLC-272H
# assayInfo: relative viability (nuclei count vs DMSO), 5 days (fraction); higher = more cells survive
# statedConditions: first compound 8 µM
Consider the cut-off 0.3. If the recorded relative viability is strictly smaller, the label is 1.0; if not, the label is 0.0.

>>> qualitativelabel("O=c1cc(-c2cccc3c2Sc2ccccc2S3)oc(N2CCOCC2)c1 + Cc1nc(Nc2ncc(C(=O)Nc3c(C)cccc3Cl)s2)cc(N2CCN(CCO)CC2)n1 [Dasatinib] (partner 0.075 µM)")
0.0
>>> qualitativelabel("O=c1cc(-c2cccc3c2Sc2ccccc2S3)oc(N2CCOCC2)c1 + COc1cccc2cc(-c3nc([C@H]4CC[C@H](C(=O)O)CC4)n4ncnc(N)c34)[nH]c12 [OSI-027] (partner 0.5 µM)")
1.0

Q: Determine if O=c1cc(-c2cccc3c2Sc2ccccc2S3)oc(N2CCOCC2)c1 + CS(=O)(=O)N1CCN(Cc2cc3nc(-c4cccc5[nH]ncc45)nc(N4CCOCC4)c3s2)CC1 [Pictilisib] (partner 1 µM) shows relative viability strictly lower than 0.3.
A: 0.0

Q: Determine if O=c1cc(-c2cccc3c2Sc2ccccc2S3)oc(N2CCOCC2)c1 + CC(=O)Nc1cccc(-n2c(=O)n(C3CC3)c(=O)c3c(Nc4ccc(I)cc4F)n(C)c(=O)c(C)c32)c1 [Trametinib] (partner 0.02 µM) shows relative viability strictly lower than 0.3.
A: 1.0

----------
# Test system: NCI-H2342
# assayInfo: relative viability (nuclei count vs DMSO), 5 days (fraction); higher = more cells survive
# statedConditions: first compound 0.03162 µM
Consider the cut-off 0.6. If the recorded relative viability is strictly smaller, the label is class 1; if not, the label is class 0.

>>> qualitativelabel("O=c1cc(N2CCOCC2)oc2c(-c3cccc4c3sc3ccccc34)cccc12 + CC(=O)c1c(C)c2cnc(Nc3ccc(N4CCNCC4)cn3)nc2n(C2CCCC2)c1=O [Palbociclib] (partner 0.5 µM)")
"class 1"
>>> qualitativelabel("O=c1cc(N2CCOCC2)oc2c(-c3cccc4c3sc3ccccc34)cccc12 + Nc1nc2[nH]cc(CCc3ccc(C(=O)N[C@@H](CCC(=O)O)C(=O)O)cc3)c2c(=O)[nH]1 [Pemetrexed] (partner 0.2 µM)")
"class 0"
>>> qualitativelabel("CCN(CC)CCCCNc1ncc2cc(-c3cc(OC)cc(OC)c3)c(NC(=O)NC(C)(C)C)nc2n1 + Cc1nc(Nc2ncc(C(=O)Nc3c(C)cccc3Cl)s2)cc(N2CCN(CCO)CC2)n1 [Dasatinib] (partner 0.075 µM)")
"class 1"
>>> qualitativelabel("CCN(CC)CCCCNc1ncc2cc(-c3cc(OC)cc(OC)c3)c(NC(=O)NC(C)(C)C)nc2n1 + O=C(c1cc(Cc2n[nH]c(=O)c3ccccc23)ccc1F)N1CCN(C(=O)C2CC2)CC1 [Olaparib] (partner 8 µM)")
"class 1"

Q: Determine if O=c1cc(N2CCOCC2)oc2c(-c3cccc4c3sc3ccccc34)cccc12 + NC(=O)Nc1cc(-c2cccc(F)c2)sc1C(=O)N[C@H]1CCCNC1 [AZD7762] (partner 0.2 µM) shows relative viability strictly lower than 0.6.
A: class 1

Q: Determine if O=c1cc(N2CCOCC2)oc2c(-c3cccc4c3sc3ccccc34)cccc12 + CCNC(=O)c1noc(-c2cc(C(C)C)c(O)cc2O)c1-c1ccc(CN2CCOCC2)cc1 [Luminespib] (partner 0.01 µM) shows relative viability strictly lower than 0.6.
A: class 1

// provenance: the supplement of paper PMC10307832
